Collected Kd values appear next to each entry.
# System under test: S100A16 (Homo sapiens, UniProt Q96FQ6)
# Sequence (Q96FQ6 1-103): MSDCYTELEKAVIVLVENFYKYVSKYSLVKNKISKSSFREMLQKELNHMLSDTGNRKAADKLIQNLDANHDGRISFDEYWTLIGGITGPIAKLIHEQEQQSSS

Smiles representation	Kd
CC[C@H](C)[C@@H](CC(=O)N[C@H]1CCCC[C@@H]1C(=O)NCC(=O)N[C@@H](CCCCNC(=O)c1ccc2c(c1)C1(OC2=O)c2ccc(O)cc2Oc2cc(O)ccc21)C(N)=O)NC(=O)[C@H]1CCCC[C@@H]1NC(=O)[C@H]1CCCC[C@@H]1NC(=O)C[C@@H](NC(=O)[C@H]1CCCC[C@@H]1N)[C@@H](C)O	> 1000 µM
CC(C)C[C@@H](CC(=O)N[C@H]1CCCC[C@@H]1C(=O)NCC(=O)N[C@@H](CCCCNC(=O)c1ccc2c(c1)C1(OC2=O)c2ccc(O)cc2Oc2cc(O)ccc21)C(N)=O)NC(=O)[C@H]1CCCC[C@@H]1NC(=O)[C@H]1CCCC[C@@H]1NC(=O)C[C@H](Cc1c[nH]c2ccccc12)NC(=O)[C@H]1CCCC[C@@H]1N	304 µM
CC[C@H](C)[C@@H](CC(=O)N[C@H]1CCCC[C@@H]1C(=O)N[C@H]1CCCC[C@@H]1C(=O)N[C@H](CC(=O)N[C@H]1CCCC[C@@H]1C(=O)NCC(=O)N[C@@H](CCCCNC(=O)c1ccc2c(c1)C1(OC2=O)c2ccc(O)cc2Oc2cc(O)ccc21)C(N)=O)Cc1ccccc1)NC(=O)[C@H]1CCCC[C@@H]1N	> 1000 µM

* * *

# System under test: S100B (Homo sapiens)
# Sequence (P04271 whole entry): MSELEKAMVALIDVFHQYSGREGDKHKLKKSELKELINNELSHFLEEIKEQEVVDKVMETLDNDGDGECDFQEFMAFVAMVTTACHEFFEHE
# Assay: direct fluorescence polarization (FP), S100B
# Particulars: 50 nM labeled foldamer, 20 mM HEPES pH 7.5, 150 mM NaCl, 1 mM CaCl2, 0.5 mM TCEP, 0.01% Tween20, quadratic fit, mean ± SEM, three technical repeats, threshold 1 mM
pKd: −log10 of the molar value.

Molecule	pKd
N=C(N)NCCC[C@@H](CC(=O)N[C@H]1CCCC[C@@H]1C(=O)N[C@H]1CCCC[C@@H]1C(=O)N[C@H](CC(=O)N[C@H]1CCCC[C@@H]1C(=O)NCC(=O)N[C@@H](CCCCNC(=O)c1ccc2c(c1)C1(OC2=O)c2ccc(O)cc2Oc2cc(O)ccc21)C(N)=O)Cc1ccccc1)NC(=O)[C@H]1CCCC[C@@H]1N [fRF]	3.64
NC(=O)[C@H](CCCCNC(=O)c1ccc2c(c1)C1(OC2=O)c2ccc(O)cc2Oc2cc(O)ccc21)NC(=O)CNC(=O)[C@H]1CCCC[C@@H]1NC(=O)C[C@H](Cc1ccccc1)NC(=O)[C@H]1CCCC[C@@H]1NC(=O)[C@H]1CCCC[C@@H]1NC(=O)C[C@H](Cc1ccc(O)cc1)NC(=O)[C@H]1CCCC[C@@H]1N [fYF]	4.55
CC[C@H](C)[C@@H](CC(=O)N[C@H]1CCCC[C@@H]1C(=O)N[C@H]1CCCC[C@@H]1C(=O)N[C@H](CC(=O)N[C@H]1CCCC[C@@H]1C(=O)NCC(=O)N[C@@H](CCCCNC(=O)c1ccc2c(c1)C1(OC2=O)c2ccc(O)cc2Oc2cc(O)ccc21)C(N)=O)Cc1ccccc1)NC(=O)[C@H]1CCCC[C@@H]1N [fIF]	3.85
